- SYSTEM NAME: human Phosphoinositide 3-kinase alpha (PI3Ka), PIK3CA (gene 5290) (UniProt P42336)
- Sequence (P42336 whole entry, looked up): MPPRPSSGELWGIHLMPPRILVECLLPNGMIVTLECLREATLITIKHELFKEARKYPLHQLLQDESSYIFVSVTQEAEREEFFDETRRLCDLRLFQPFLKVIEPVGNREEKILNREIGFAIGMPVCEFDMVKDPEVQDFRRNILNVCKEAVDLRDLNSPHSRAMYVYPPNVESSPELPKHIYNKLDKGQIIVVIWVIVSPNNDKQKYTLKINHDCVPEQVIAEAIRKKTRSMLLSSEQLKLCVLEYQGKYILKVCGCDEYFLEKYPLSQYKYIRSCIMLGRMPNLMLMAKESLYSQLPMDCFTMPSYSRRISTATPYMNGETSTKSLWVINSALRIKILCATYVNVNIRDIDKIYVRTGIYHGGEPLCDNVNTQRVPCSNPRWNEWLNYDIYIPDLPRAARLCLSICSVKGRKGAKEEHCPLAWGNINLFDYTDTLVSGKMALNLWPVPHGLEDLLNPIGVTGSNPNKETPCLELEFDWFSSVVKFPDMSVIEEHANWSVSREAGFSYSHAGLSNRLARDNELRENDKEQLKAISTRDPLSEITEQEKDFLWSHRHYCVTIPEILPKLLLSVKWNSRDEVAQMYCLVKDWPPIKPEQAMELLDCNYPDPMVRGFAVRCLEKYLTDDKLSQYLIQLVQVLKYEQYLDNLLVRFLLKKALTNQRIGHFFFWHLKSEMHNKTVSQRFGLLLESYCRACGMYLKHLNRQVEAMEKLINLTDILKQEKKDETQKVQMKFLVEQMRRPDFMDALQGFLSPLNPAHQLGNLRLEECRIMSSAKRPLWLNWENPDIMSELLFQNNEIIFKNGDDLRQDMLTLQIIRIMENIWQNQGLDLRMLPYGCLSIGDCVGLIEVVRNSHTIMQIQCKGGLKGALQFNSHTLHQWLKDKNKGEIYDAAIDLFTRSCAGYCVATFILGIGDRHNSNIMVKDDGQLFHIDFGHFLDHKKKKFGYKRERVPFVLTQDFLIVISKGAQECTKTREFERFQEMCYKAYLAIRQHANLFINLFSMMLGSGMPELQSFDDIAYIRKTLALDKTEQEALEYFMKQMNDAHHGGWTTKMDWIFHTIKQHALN
- ASSAY COMMENT: NVS_ENZ_hPI3Ka: NovaScreen (NVS) Enzymatic Assay for human Phosphoinositide 3-kinase alpha (PI3Ka) (AID 2283196)
Inconclusive results are not listed. The source made the active and inactive calls. The calls were made as follows: active = hit-call score of the fitted dose curve at least 0.9, where 1 is the maximum; inconclusive = response in the unintended direction; inactive = score below 0.9.
Entry note: the call must match one of true (active), false (inactive)

[[record]]
structure_string = "CCCC(CCC)C(=O)O"
system_name = "human Phosphoinositide 3-kinase alpha (PI3Ka), PIK3CA (gene 5290) (UniProt P42336)"
label_value = "false"

[[record]]
structure_string = "Cc1nc(-c2ccccn2)ncc1C(=O)Nn1cc(C)c2cc(F)ccc21"
system_name = "human Phosphoinositide 3-kinase alpha (PI3Ka), PIK3CA (gene 5290) (UniProt P42336)"
label_value = "false"

[[record]]
structure_string = "Cc1ncc([C@@H](CCCCCCc2ccc3c(n2)NCCC3)CC(=O)O)cn1"
system_name = "human Phosphoinositide 3-kinase alpha (PI3Ka), PIK3CA (gene 5290) (UniProt P42336)"
label_value = "false"

[[record]]
structure_string = "CC[C@H](C)C(=O)O[C@H]1C[C@H](O)C=C2C=C[C@H](C)[C@H](CC[C@@H](O)C[C@@H](O)CC(=O)O)[C@H]21"
system_name = "human Phosphoinositide 3-kinase alpha (PI3Ka), PIK3CA (gene 5290) (UniProt P42336)"
label_value = "false"

[[record]]
structure_string = "CCCCCCCCCCCCCCCCOS(=O)(=O)O"
system_name = "human Phosphoinositide 3-kinase alpha (PI3Ka), PIK3CA (gene 5290) (UniProt P42336)"
label_value = "true"


Per the records of this test, what outcome belongs to "CCCCCCCC/C=C\CCCCCCCC(=O)OC[C@@H](O)[C@H]1OC[C@H](O)[C@H]1O" ? false

Per the records of this test, what outcome belongs to "O=c1[nH]cnc2c1ncn2[C@H]1CC[C@@H](CO)O1" ? false

###

- Read-out: Alkaline Phosphatase, Placental (ALPP) gene, ALPP (gene 250)
- ASSAY COMMENT: LTEA_HepaRG_ALPP: Life Technologies and Expression Analysis (LTEA) Assay for Alkaline Phosphatase, Placental (ALPP) gene using HepaRG (AID 2283468)
- TEST PARAMETERS: mRNA level, 48 h; actives raise or lower the signal
Activity calls are given as the source filed them. Rule for the calls: active = hit-call score of the fitted dose curve at least 0.9, where 1 is the maximum; inactive = score below 0.9.
Entry note: the call must match one of active, inactive

Solved entries (count: 5):
[[record]]
molecule = "O=C(NO)C1(NS(=O)(=O)c2ccc(Oc3ccc(F)cc3)cc2)CCOCC1"
label_value = "active"

[[record]]
molecule = "CCN(CC)C(=S)SSC(=S)N(CC)CC"
label_value = "inactive"

[[record]]
molecule = "CC(C)CC(C)O (configuration not stated)"
label_value = "inactive"

[[record]]
molecule = "CCCCCCCCCCCCCCCCOS(=O)(=O)O"
label_value = "inactive"

[[record]]
molecule = "NC(=O)NN=Cc1ccc([N+](=O)[O-])o1"
label_value = "active"


Kindly consider the entry below.
Per the records of this test, what outcome belongs to "OCCNCCO" ? active

###

- SYSTEM NAME: Estrogen receptor (Homo sapiens) + Estrogen receptor beta (Homo sapiens) (UniProt P03372+Q92731)
- Sequence (P03372 whole entry, looked up, the tested form may be a part): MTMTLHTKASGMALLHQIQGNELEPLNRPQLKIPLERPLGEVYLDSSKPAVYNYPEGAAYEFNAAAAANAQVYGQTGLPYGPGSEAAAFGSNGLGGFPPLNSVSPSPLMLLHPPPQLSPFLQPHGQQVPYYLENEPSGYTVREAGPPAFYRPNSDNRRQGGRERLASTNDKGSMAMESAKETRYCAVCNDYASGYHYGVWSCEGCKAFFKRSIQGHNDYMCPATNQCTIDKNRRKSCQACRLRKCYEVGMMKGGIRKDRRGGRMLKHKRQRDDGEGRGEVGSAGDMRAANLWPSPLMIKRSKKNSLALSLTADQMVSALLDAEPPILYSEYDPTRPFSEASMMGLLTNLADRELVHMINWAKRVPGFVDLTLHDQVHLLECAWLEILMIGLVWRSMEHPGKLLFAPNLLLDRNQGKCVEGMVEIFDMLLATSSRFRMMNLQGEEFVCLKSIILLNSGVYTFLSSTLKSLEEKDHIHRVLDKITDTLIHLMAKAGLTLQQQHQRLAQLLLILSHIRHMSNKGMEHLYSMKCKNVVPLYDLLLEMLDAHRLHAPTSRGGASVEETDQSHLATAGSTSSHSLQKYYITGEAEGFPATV
- Sequence (Q92731 whole entry, looked up, the tested form may be a part): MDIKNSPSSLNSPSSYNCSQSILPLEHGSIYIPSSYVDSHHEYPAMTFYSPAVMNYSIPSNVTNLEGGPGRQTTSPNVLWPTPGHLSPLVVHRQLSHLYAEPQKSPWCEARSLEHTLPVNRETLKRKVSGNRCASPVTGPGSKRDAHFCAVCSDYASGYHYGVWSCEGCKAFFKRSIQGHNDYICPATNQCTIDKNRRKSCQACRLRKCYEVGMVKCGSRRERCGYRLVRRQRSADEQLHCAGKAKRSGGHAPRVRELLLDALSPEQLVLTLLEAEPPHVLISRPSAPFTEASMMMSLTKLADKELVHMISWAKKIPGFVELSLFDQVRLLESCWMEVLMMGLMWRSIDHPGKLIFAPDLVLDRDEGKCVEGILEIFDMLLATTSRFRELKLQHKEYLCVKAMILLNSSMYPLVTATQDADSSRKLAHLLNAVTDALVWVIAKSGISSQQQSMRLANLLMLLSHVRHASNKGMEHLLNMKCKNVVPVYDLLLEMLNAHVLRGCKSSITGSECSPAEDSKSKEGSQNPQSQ
- ASSAY COMMENT: OT_ER_ERaERb_1440: Odyssey Thera (OT) 24-hour HEK293T Protein-Complementation Assay for Estrogen Receptor-alpha/-beta Homodimer (AID 2283356);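 also: heteromer of ER alpha and ER beta binding domains; hits raise reporter fluorescence and both agonists and antagonists give an increase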
Records with an inconclusive call do not appear. The source made the active and inactive calls. Rule for the calls: active = hit-call score of the fitted dose curve at least 0.9, where 1 is the maximum; inconclusive = response in the unintended direction; inactive = score below 0.9.
Entry note: the call must match one of 1.0 = active, 0.0 = inactive

[[record]]
compound = "NC(N)=O"
label_value = 0.0

[[record]]
compound = "OC(Cn1cncn1)(Cn1cncn1)c1ccc(F)cc1F"
label_value = 0.0

[[record]]
compound = "CC(C)CC(C)O (stereo unspecified)"
label_value = 0.0

[[record]]
compound = "OC[C@H]1O[C@@](CO)(O[C@H]2O[C@H](CO)[C@@H](O)[C@H](O)[C@H]2O)[C@@H](O)[C@@H]1O"
label_value = 0.0

[[record]]
compound = "O=C(O)c1ccc2c(c1)nc(C(=O)NC1CCN(C3CC3)CC1)n2Cc1cc(-c2ccc(Cl)s2)on1"
label_value = 0.0


Kindly consider the entry below.
Per the records of this test, what outcome belongs to "CCN(CC)C(=S)SSC(=S)N(CC)CC" ? 1.0
